Assay: Pharmacokinetics and bioavailability test in rats (Example 60)
Assay type: in vivo
Settings: Sprague-Dawley, rat, plasma; SD rats, IV 2.5 mg/kg
Description: Pharmacokinetics and bioavailability tests in rats. SD rats were given a single oral (10 mg/kg), intravenous (2.5 mg/kg) and intraperitoneal (10 mg/kg) dose, followed by animal blood sample collection at appropriate time points. Heparin was added for anticoagulation, and the samples were centrifuged at 8000 rpm for 6 min. […] The oral bioavailability of the compounds was calculated based on the area under the plasma concentration-time curve (AUC) data. […]
Recorded measurements of clearance, one per entry
Lab book: enter the figure in mL/min/kg, no units written.

>  <Molecule>
O=C1CCC(N2C(=O)c3ccc(N4CCC(N5CCN(c6ccc(N(C(=O)NCc7ccccc7)[C@H]7CC[C@H](Nc8ncc9ccccc9n8)CC7)cc6)CC5)CC4)cc3C2=O)C(=O)N1 (stereo partly drawn)

>  <clearance, mL/min/kg>
4.8

$$$$

### Prompt Sample O=C1CCC(N2C(=O)c3cc(F)c(N4CCC(N5CCN(c6ccc(N(C(=O)NCc7ccccc7)[C@H]7CC[C@H](Nc8ncc9ccccc9n8)CC7)cc6)CC5)CC4)cc3C2=O)C(=O)N1 (stereo partly drawn) — what was its clearance?
### Response 3.27

### Prompt Another molecule: O=C1CCC(N2C(=O)c3cc(F)c(N4CCC(N5CCN(c6ccc(N(C(=O)NCc7ccccc7)[C@H]7CC[C@H](Nc8ncc9ccccc9n8)CC7)cn6)CC5)CC4)cc3C2=O)C(=O)N1 (stereo partly drawn)
### Response 4.29

----------
Test: Pharmacokinetics and bioavailability test in rats (Example 57)
Assay type: in vivo
Conditions: rat, plasma, iv; SD rats, i.v. 2.5 mg/kg
Metric: Tmax (min)
Expressed in min, but write only the number.

### Prompt If you can, please state the reported Tmax value of N#Cc1ccc(N[C@H]2CC[C@H](N(C(=O)NCc3ccccc3)c3ccc(N4CCN(C5CCN(c6cc7c(cc6F)C(=O)N(C6CCC(=O)NC6=O)C7=O)CC5)CC4)cc3)CC2)nc1 (stereo partly shown) [ZLC4-91] .
### Response 4.8

----------
Test: Pharmacokinetics and bioavailability test in rats (Example 57)
Assay type: in vivo
Settings: Sprague-Dawley, rat, plasma, iv; SD rats, i.v. 2.5 mg/kg
Method: Pharmacokinetics and bioavailability tests in rats. SD rats were given a single oral (10 mg/kg), intravenous (2.5 mg/kg) and intraperitoneal (10 mg/kg) dose, followed by animal blood sample collection at appropriate time points. Heparin was added for anticoagulation, and the samples were centrifuged at 8000 rpm for 6 min. […] The oral bioavailability of the compounds was calculated based on the area under the plasma concentration-time curve (AUC) data. […]
Metric: Cmax
Mention the unit after the number when you answer.

### Prompt Query: Cmax; subject: N#Cc1ccc(N[C@H]2CC[C@H](N(C(=O)NCc3ccccc3)c3ccc(N4CCN(C5CCN(c6ccc7c(c6)C(=O)N(C6CCC(=O)NC6=O)C7=O)CC5)CC4)cc3)CC2)nc1 (stereo partly shown) [zlc-4-93]
### Response 2.59 µg/mL

----------
Test: Pharmacokinetics and bioavailability test in rats (Example 57)
Type: in vivo
Details: Sprague-Dawley, rat, plasma; SD rats, Oral 10 mg/kg
Metric: Cmax (ng/mL)
All answers are understood in ng/mL, so give the number only.

### Prompt I'd like to know its Cmax. The molecule in question is N#Cc1ccc(N[C@H]2CC[C@H](N(C(=O)NCc3ccccc3)c3ccc(N4CCN(C5CCN(c6ccc7c(c6)C(=O)N(C6CCC(=O)NC6=O)C7=O)CC5)CC4)cc3)CC2)nc1 (stereo partly shown) [zlc-4-93]
### Response 308
